Target: recombinant human DAO (diamine oxidase) (Homo sapiens)
Construct: purchased R&D systems
Test: Activity on recombinant human DAO, method similar to the VAP-1 assay
Type: biochemical
Settings: substrate 1 mM putrescine; read-out: Inhibitory Activity (IC50, nM) DAO
Counter-ions that a name gives are not always drawn.
METRIC: IC50

Query string: Indicate its recorded IC50; the compound in question is Cc1cc(-c2ccc(Cn3cnn(C/C(=C/F)CN)c3=O)s2)cnc1N1CCOCC1
Result string: 490 nM

Query string: Indicate its recorded IC50; the compound in question is CN(C)c1ccc(-c2ccc3sc(Cn4cnn(C/C(=C/F)CN)c4=O)cc3c2)cn1
Result string: 77000 nM

Query string: Indicate its recorded IC50; the compound in question is NC/C(=C\F)Cn1ncn(Cc2ccc(-c3ccc4c(c3Cl)NC(=O)CO4)s2)c1=O [Example 95, hydrochloride]
Result string: 240 nM

Query string: Indicate its recorded IC50; the compound in question is CC1(C)Oc2ccc(-c3ccc(Cn4cnn(C/C(=C/F)CN)c4=O)s3)cc2NC1=O
Result string: 200 nM

###

Biological target: recombinant human DAO (diamine oxidase) (Homo sapiens, UniProt P19801)
Construct: purchased R&D systems
Sequence (P19801 20-751): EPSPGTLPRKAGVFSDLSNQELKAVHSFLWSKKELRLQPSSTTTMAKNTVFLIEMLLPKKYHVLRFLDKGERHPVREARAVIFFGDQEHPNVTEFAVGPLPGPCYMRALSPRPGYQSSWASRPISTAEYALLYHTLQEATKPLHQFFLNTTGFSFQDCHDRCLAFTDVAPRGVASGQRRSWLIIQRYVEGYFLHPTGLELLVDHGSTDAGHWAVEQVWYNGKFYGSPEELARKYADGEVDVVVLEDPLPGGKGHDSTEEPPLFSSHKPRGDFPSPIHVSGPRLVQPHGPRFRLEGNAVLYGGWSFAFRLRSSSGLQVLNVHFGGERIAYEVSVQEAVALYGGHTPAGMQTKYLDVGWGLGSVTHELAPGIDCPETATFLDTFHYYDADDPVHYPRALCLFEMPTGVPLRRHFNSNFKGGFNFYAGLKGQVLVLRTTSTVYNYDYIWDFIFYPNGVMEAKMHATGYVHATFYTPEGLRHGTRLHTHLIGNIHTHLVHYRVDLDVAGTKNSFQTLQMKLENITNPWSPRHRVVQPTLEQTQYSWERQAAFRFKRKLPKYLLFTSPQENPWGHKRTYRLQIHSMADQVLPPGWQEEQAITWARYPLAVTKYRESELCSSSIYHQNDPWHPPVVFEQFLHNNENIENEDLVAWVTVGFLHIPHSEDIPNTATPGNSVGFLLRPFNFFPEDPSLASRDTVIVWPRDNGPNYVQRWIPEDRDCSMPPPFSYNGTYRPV
Experiment: Activity on recombinant human DAO, method similar to the VAP-1 assay
Format: biochemical
Settings: substrate 1 mM putrescine; read-out: Inhibitory Activity (IC50, nM) DAO
Counter-ions that a name gives are not always drawn.
METRIC: log10(IC50) (log10 of the value in nM)
The base-10 logarithm of IC50, taken with IC50 in nM, is what appears here.

Answered examples (5):
| COMPOUND | METRIC | RECORDED RESULT |
| --- | --- | --- |
| COc1cc(-c2ccc(Cn3cnn(C/C(=C/F)CN)c3=O)s2)cnc1OC | log10(IC50) | 2.45 |
| CC(=O)c1ccc(-c2ccc(Cn3cnn(C/C(=C/F)CN)c3=O)s2)s1 | log10(IC50) | 2.98 |
| NC/C(=C\F)Cn1ncn(Cc2ccc(-c3ccc4ocnc4c3)s2)c1=O [Example 62, hydrochloride] | log10(IC50) | 2.72 |
| CNc1ncc2cc(-c3ccc(Cn4cnn(C/C(=C/F)CN)c4=O)s3)ccc2n1 [Example 112, hydrochloride] | log10(IC50) | 2.49 |
| CN(C)c1ccc(C#Cc2ccc(Cn3cnn(C/C(=C/F)CN)c3=O)s2)cn1 | log10(IC50) | 3.99 |

Query string: Indicate its recorded log10(IC50); the compound in question is NC/C(=C\F)Cn1ncn(Cc2ccc(-c3ccc(N)cc3)s2)c1=O
Result string: 4.15

Query string: Indicate its recorded log10(IC50); the compound in question is CC(C)Oc1ccc(-c2ccc(Cn3cnn(C/C(=C/F)CN)c3=O)s2)cn1
Result string: 2.86

Query string: Indicate its recorded log10(IC50); the compound in question is NC/C(=C\F)Cn1ncn(Cc2ccc(-c3ccc(CN4CCOCC4)nc3)s2)c1=O
Result string: 2.69

###

Biological target: recombinant human MAO-B (monoamine oxidase-B) (Homo sapiens)
Construct: purchased Sigma-Aldrich
Experiment: Activity on recombinant human MAO-B, method similar to the VAP-1 assay
Type: biochemical
Settings: substrate 1 mM benzylamine; read-out: Inhibitory Activity (IC50, nM) MAO-B
Structures can show the parent of a compound that is named as a salt.
METRIC: IC50

| MOLECULE | SYSTEM UNDER TEST | RECORDED RESULT |
| --- | --- | --- |
| CCS(=O)(=O)c1ccc(-c2ccc(Cn3cnn(C/C(=C/F)CN)c3=O)s2)cc1 | recombinant human MAO-B (monoamine oxidase-B) (Homo sapiens) | 4700 nM |
| NC/C(=C\F)Cn1ncn(Cc2ccc(-c3cc4c(cc3F)OCC(=O)N4)s2)c1=O [Example 93, hydrochloride] | recombinant human MAO-B (monoamine oxidase-B) (Homo sapiens) | 1100 nM |
| CC1(C)Oc2ccc(-c3ccc(Cn4cnn(C/C(=C/F)CN)c4=O)s3)cc2NC1=O | recombinant human MAO-B (monoamine oxidase-B) (Homo sapiens) | 530 nM |
| NC/C(=C\F)Cn1ncn(Cc2cc3cc(-c4ccc(N5CCNCC5)cc4)ccc3s2)c1=O | recombinant human MAO-B (monoamine oxidase-B) (Homo sapiens) | 5200 nM |
| COCCOc1ccc(-c2ccc(Cn3cnn(C/C(=C/F)CN)c3=O)s2)cc1 [Example 19, hydrochloride] | recombinant human MAO-B (monoamine oxidase-B) (Homo sapiens) | 1100 nM |

Query string: Indicate its recorded IC50; the molecule in question is NC/C(=C\F)Cn1ncn(Cc2ccc(-c3ccc4c(c3)COC(=O)N4)s2)c1=O [Example 101, hydrochloride]
Result string: 540 nM

Query string: Indicate its recorded IC50; the molecule in question is NC/C(=C\F)Cn1ncn(Cc2ccc(-c3ccc(N4CCNCC4)cc3)s2)c1=O [Example 22, hydrochloride]
Result string: 2600 nM

Query string: Indicate its recorded IC50; the molecule in question is Cc1nn(C)cc1-c1ccc(Cn2cnn(C/C(=C/F)CN)c2=O)s1
Result string: 330 nM

Query string: Indicate its recorded IC50; the molecule in question is NC/C(=C\F)Cn1ncn(Cc2ccc(-c3cnc(N4CCOCC4)nc3)s2)c1=O [Example 57, hydrochloride]
Result string: 1600 nM

Query string: Indicate its recorded IC50; the molecule in question is NC/C(=C\F)Cn1ncn(Cc2ccc(-c3cnn(Cc4ccccc4)c3)s2)c1=O
Result string: 1500 nM

Query string: Indicate its recorded IC50; the molecule in question is NC/C(=C\F)Cn1ncn(CCc2ccc(-c3ccc(N4CCNCC4)cc3)s2)c1=O
Result string: > 100000 nM

Query string: Indicate its recorded IC50; the molecule in question is NC/C(=C\F)Cn1ncn(Cc2ccc(-c3ccc(C4CCOCC4)cc3)s2)c1=O [Example 25, hydrochloride]
Result string: 1300 nM

Query string: Indicate its recorded IC50; the molecule in question is NC/C(=C\F)Cn1ncn(CCc2ccc(-c3ccc(C(F)(F)F)nc3)s2)c1=O
Result string: 6900 nM

Query string: Indicate its recorded IC50; the molecule in question is CN(C)c1ccc(-c2ccc3sc(Cn4cnn(C/C(=C/F)CN)c4=O)cc3c2)cn1
Result string: 4900 nM

Query string: Indicate its recorded IC50; the molecule in question is NC/C(=C\F)Cn1ncn(Cc2ccc(-c3cccc(-c4nnc[nH]4)c3)s2)c1=O
Result string: 600 nM

Query string: Indicate its recorded IC50; the molecule in question is NC/C(=C\F)Cn1ncn(Cc2ccc(C#Cc3ccc4c(c3)CCC(=O)N4)s2)c1=O [Example 133, hydrochloride]
Result string: 180 nM

###

Target: recombinant human MAO-B (monoamine oxidase-B) (Homo sapiens, UniProt P27338)
Construct: purchased Sigma-Aldrich
Sequence (P27338 whole entry): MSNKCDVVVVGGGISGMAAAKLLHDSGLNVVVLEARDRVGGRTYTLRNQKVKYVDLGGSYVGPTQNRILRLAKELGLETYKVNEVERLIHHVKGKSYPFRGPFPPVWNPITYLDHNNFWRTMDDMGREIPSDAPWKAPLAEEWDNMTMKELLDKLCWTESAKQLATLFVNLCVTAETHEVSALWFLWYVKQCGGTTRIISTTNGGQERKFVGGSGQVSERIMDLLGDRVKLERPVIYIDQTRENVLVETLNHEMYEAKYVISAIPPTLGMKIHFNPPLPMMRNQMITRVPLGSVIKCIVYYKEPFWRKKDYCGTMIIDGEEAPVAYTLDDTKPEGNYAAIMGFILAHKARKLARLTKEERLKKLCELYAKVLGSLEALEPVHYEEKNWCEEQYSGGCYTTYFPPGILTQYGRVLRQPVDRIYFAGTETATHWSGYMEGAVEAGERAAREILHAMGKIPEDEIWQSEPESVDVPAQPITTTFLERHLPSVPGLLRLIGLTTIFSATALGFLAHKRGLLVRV
Assay: Activity on recombinant human MAO-B, method similar to the VAP-1 assay
Format: biochemical
Conditions: substrate 1 mM benzylamine; read-out: Inhibitory Activity (IC50, nM) MAO-B
Where a name gives a salt, the structure may show the parent alone.
Simple rule here: IC50 less than 700 nM is TRUE, otherwise FALSE.

Take a look at these entries with their results.
| COMPOUND | LABEL VALUE |
| --- | --- |
| COc1cc(-c2ccc(Cn3cnn(C/C(=C/F)CN)c3=O)s2)cc(OC)c1OC [Example 17, hydrochloride] | FALSE |
| NC/C(=C\F)Cn1ncn(Cc2ccc(-c3ccc4c(c3)NC(=O)CO4)s2)c1=O [Example 90, hydrochloride] | TRUE |
| COC(=O)c1cccc(-c2ccc(Cn3cnn(C/C(=C/F)CN)c3=O)s2)c1 [Example 11, hydrochloride] | TRUE |
| NC/C(=C\F)Cn1ncn(Cc2ccc(Cc3ccc(OC(F)(F)F)cc3)s2)c1=O [Example 168] | TRUE |
| NC/C(=C\F)Cn1ncn(Cc2ccc(C#Cc3cnc4c(c3)NC(=O)CO4)s2)c1=O [Example 138, hydrochloride] | FALSE |
| NC/C(=C\F)Cn1ncn(Cc2ccc(-c3ccc(S(=O)(=O)N4CCOCC4)cc3)s2)c1=O [Example 198] | FALSE |

Here is the next item to consider.
Query string: Find out if reported IC50 for NC/C(=C\F)Cn1ncn(Cc2ccc(C#Cc3cnc4c(c3)OCCN4)s2)c1=O [Example 137] is less than 700 nM
Result string: TRUE

###

# maps each entry to its IC50
Molecular target: recombinant human VAP-1 (Homo sapiens)
Construct: purchased R&D systems
Sequence (Q16853 whole entry): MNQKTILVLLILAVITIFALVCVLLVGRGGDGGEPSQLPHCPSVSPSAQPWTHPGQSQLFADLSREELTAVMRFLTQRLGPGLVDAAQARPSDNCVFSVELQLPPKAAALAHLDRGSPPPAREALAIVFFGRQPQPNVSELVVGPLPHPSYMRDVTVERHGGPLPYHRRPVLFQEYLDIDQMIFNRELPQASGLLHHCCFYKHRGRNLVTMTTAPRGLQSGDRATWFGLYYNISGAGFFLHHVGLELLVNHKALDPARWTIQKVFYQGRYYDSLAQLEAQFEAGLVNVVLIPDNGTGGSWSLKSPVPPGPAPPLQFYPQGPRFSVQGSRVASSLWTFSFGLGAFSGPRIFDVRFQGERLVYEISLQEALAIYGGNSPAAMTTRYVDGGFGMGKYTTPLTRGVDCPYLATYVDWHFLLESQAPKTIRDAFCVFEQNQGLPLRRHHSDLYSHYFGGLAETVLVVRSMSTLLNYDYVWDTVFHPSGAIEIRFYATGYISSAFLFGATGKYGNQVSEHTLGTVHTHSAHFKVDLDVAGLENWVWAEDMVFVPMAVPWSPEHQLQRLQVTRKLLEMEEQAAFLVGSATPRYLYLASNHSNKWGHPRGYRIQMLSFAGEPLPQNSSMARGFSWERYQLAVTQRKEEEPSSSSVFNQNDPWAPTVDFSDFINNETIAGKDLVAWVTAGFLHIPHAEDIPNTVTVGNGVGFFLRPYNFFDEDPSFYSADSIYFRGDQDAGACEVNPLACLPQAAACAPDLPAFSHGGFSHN
Experiment: Activity on recombinant human VAP-1, HRP-coupled Amplex Red hydrogen peroxide assay
Assay type: biochemical
Conditions: substrate 1 mM benzylamine; compound incubated with enzyme at 37° C. for 30 minutes; pH 7.4; read-out: Inhibitory Activity (IC50, nM) human VAP-1
Where a name gives a salt, the structure may show the parent alone.
Hi! Could you send only the number? It should be in nM, unit omitted.

Answered examples (10):
| COMPOUND | SYSTEM UNDER TEST | IC50 / nM |
| --- | --- | --- |
| CN(C)S(=O)(=O)c1cccc(-c2ccc(Cn3cnn(C/C(=C/F)CN)c3=O)s2)c1 | recombinant human VAP-1 (Homo sapiens) | 1.2 |
| CC(=O)c1ccc(-c2ccc(Cn3cnn(C/C(=C/F)CN)c3=O)s2)s1 | recombinant human VAP-1 (Homo sapiens) | 0.4 |
| NC/C(=C\F)Cn1ncn(CCc2ccc(-c3ccc4c(c3)OCO4)s2)c1=O | recombinant human VAP-1 (Homo sapiens) | 1.3 |
| NC/C(=C\F)Cn1ncn(Cc2ccc(/C=C/c3ccc(C(F)(F)F)cc3)s2)c1=O [Example 119, hydrochloride] | recombinant human VAP-1 (Homo sapiens) | 1.8 |
| NC/C(=C\F)Cn1ncn(Cc2ccc(-c3ccc(S(=O)(=O)N4CCOCC4)cc3)s2)c1=O [Example 198] | recombinant human VAP-1 (Homo sapiens) | 2.2 |
| Cc1cc(-c2ccc(Cn3cnn(C/C(=C/F)CN)c3=O)s2)cnc1N1CCOCC1 | recombinant human VAP-1 (Homo sapiens) | 2.8 |
| NC/C(=C\F)Cn1ncn(Cc2ccc(/C=C/c3ccc(O)cc3)s2)c1=O [Example 116, hydrochloride] | recombinant human VAP-1 (Homo sapiens) | 0.6 |
| NC/C(=C\F)Cn1ncn(Cc2ccc(-c3ccc(-c4noc(=O)[nH]4)cc3)s2)c1=O | recombinant human VAP-1 (Homo sapiens) | 4.6 |
| CN(C)c1ccc(-c2ccc(Cn3cnn(C/C(=C/F)CN)c3=O)s2)cn1 [Example 42, hydrochloride] | recombinant human VAP-1 (Homo sapiens) | 0.7 |
| NC/C(=C\F)Cn1ncn(Cc2ccc(-c3cc(F)c4c(c3)CNC4=O)s2)c1=O [Example 70, hydrochloride] | recombinant human VAP-1 (Homo sapiens) | 0.1 |

Query string: Indicate its recorded IC50; the compound in question is NC/C(=C\F)Cn1ncn(Cc2ccc(-c3ccc(F)c(F)c3)s2)c1=O [Example 14, hydrochloride]
Result string: 6.5

Query string: Indicate its recorded IC50; the compound in question is CC(=O)Nc1nc2cc(-c3ccc(Cn4cnn(C/C(=C/F)CN)c4=O)s3)ccc2s1
Result string: 0.7

Query string: Indicate its recorded IC50; the compound in question is CC(=O)N1CC=C(c2ccc(Cn3cnn(C/C(=C/F)CN)c3=O)s2)CC1
Result string: 0.5

Query string: Indicate its recorded IC50; the compound in question is NC/C(=C\F)Cn1ncn(Cc2ccc(-c3cnc4[nH]ccc4c3)s2)c1=O [Example 65, hydrochloride]
Result string: 0.7

Query string: Indicate its recorded IC50; the compound in question is NC/C(=C\F)Cn1ncn(Cc2ccc(-c3ccc(N4CCNCC4)cc3)s2)c1=O [Example 22, hydrochloride]
Result string: 6.4

Query string: Indicate its recorded IC50; the compound in question is CCOc1ncc(-c2ccc(Cn3cnn(C/C(=C/F)CN)c3=O)s2)cn1
Result string: 1.2

Query string: Indicate its recorded IC50; the compound in question is Cc1cc(-c2ccc(CCn3cnn(C/C(=C/F)CN)c3=O)s2)cc2c1NC(=O)CC2
Result string: 0.7

Query string: Indicate its recorded IC50; the compound in question is NC/C(=C\F)Cn1ncn(Cc2ccc(-c3ccc(N)cc3)s2)c1=O
Result string: 7.7

Query string: Indicate its recorded IC50; the compound in question is NC/C(=C\F)Cn1ncn(Cc2ccc(-c3ccc4c(c3)SCC(=O)N4)s2)c1=O [Example 85, hydrochloride]
Result string: 0.3

Query string: Indicate its recorded IC50; the compound in question is Cc1c(-c2ccc(Cn3cnn(C/C(=C/F)CN)c3=O)s2)ccc2c1NC(=O)CO2 [Example 92, hydrochloride]
Result string: 0.2

Query string: Indicate its recorded IC50; the compound in question is NC/C(=C\F)Cn1ncn(Cc2ccc(C#Cc3cnc4c(c3)NCCO4)s2)c1=O
Result string: 1.1

Query string: Indicate its recorded IC50; the compound in question is NC/C(=C\F)Cn1ncn(Cc2ccc(-c3cc(F)c4c(c3)NC(=O)CO4)s2)c1=O [Example 94, hydrochloride]
Result string: 0.3

Query string: Indicate its recorded IC50; the compound in question is COC(=O)c1cccc(-c2ccc(Cn3cnn(C/C(=C/F)CN)c3=O)s2)c1 [Example 11, hydrochloride]
Result string: 1.8

Query string: Indicate its recorded IC50; the compound in question is NC/C(=C\F)Cn1ncn(Cc2ccc(-c3cccc4ncccc34)s2)c1=O [Example 113, hydrochloride]
Result string: 0.8

Query string: Indicate its recorded IC50; the compound in question is CN(C)c1cccc(-c2ccc(Cn3cnn(C/C(=C/F)CN)c3=O)s2)c1 [Example 4, hydrochloride]
Result string: 4.6

Query string: Indicate its recorded IC50; the compound in question is NC/C(=C\F)Cn1ncn(Cc2cc3cc(-c4ccc(C(F)(F)F)nc4)ccc3s2)c1=O
Result string: 2.3

Query string: Indicate its recorded IC50; the compound in question is CNc1ncc2cc(-c3ccc(Cn4cnn(C/C(=C/F)CN)c4=O)s3)ccc2n1 [Example 112, hydrochloride]
Result string: 0.9

Query string: Indicate its recorded IC50; the compound in question is CN(C)c1ccc(-c2ccc(Cn3cnn(C/C(=C/F)CN)c3=O)s2)cc1 [Example 5, hydrochloride]
Result string: 3.3

Query string: Indicate its recorded IC50; the compound in question is NC/C(=C\F)Cn1ncn(Cc2ccc(/C=C/c3cccc(F)c3)s2)c1=O [Example 118, hydrochloride]
Result string: 1.1

Query string: Indicate its recorded IC50; the compound in question is CCn1cc(-c2ccc(CCn3cnn(C/C(=C/F)CN)c3=O)s2)cn1
Result string: 0.7

Query string: Indicate its recorded IC50; the compound in question is NC/C(=C\F)Cn1ncn(Cc2ccc(-c3ccc(=O)n(C4CC4)c3)s2)c1=O
Result string: 1.6
